test_target: Protein S100-B (Homo sapiens)
Sequence (P04271 whole entry): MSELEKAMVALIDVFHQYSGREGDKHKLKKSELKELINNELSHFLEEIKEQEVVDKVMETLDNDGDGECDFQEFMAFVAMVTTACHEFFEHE
experiment: Binding to holo-S100B protein
So basically, if Kd comes in under 8 µM it's Y, and if it's 8 µM or more it's N.

- structure_as_smiles: "N=C(N)NC(=N)Nc1cccc(Cl)c1Cl"
  assigned_class: "Y"

Request: Criterion: Kd strictly below 8 µM. Is it met by `Cc1cc(C)c(N2C(=O)c3ccc(C(=O)Nc4cc(C(=O)O)cc(C(=O)O)c4)cc3C2=O)c(C)c1` ?
Response: N

Request: Criterion: Kd strictly below 8 µM. Is it met by `N=C(N)c1ccc(OCCCCCOc2ccc(C(=N)N)cc2)cc1` ?
Response: Y

Request: Criterion: Kd strictly below 8 µM. Is it met by `Cc1c(NS(=O)(=O)c2ccc(NC(=O)CCC(=O)O)cc2)c(=O)n(-c2ccccc2)n1C` ?
Response: Y

Request: Criterion: Kd strictly below 8 µM. Is it met by `O=C(O)c1cc(N/N=C/c2ccc(-c3ccc(Cl)c(C(=O)O)c3)o2)ccc1Cl` ?
Response: N

Request: Criterion: Kd strictly below 8 µM. Is it met by `N=C(N)NC(=N)Nc1ccc(Cl)cc1C(=O)c1ccccc1` ?
Response: Y
